Experiment: Lipophilicity determination by HPLC (capacity factor k / log k)
Assay type: physicochemical
Measurement Setup: RP-HPLC, C18, MeOH 55%/H2O 45%
Experimental Endpoint: Log k

[[record]]
compound = "COC(=O)Nc1ccc(C(=O)OCC(O)CNCCOc2ccc(OC)cc2)cc1.Cl (stereo not drawn) [Compound 20a]"
data_value = 0.3881

[[record]]
compound = "CCCCOC(=O)Nc1ccc(C(=O)OCC(O)CNCCOc2ccccc2OC)cc1.Cl (stereo not drawn) [Compound 19d]"
data_value = 0.4228

[[record]]
compound = "COC(=O)Nc1ccc(C(=O)OCC(O)CNCCOc2c(OC)cccc2OC)cc1.Cl (stereo not drawn) [Compound 21a]"
data_value = 0.3865


###

Reported pKa by item:
Experiment: pKa determination by RP-HPLC
Type: physicochemical
Measurement Setup: from retention factor vs pH of mobile phase, recalculated for water medium
Experimental Endpoint: pKa

[[record]]
molecule = "CCCOC(=O)Nc1ccc(C(=O)OCC(O)CNCCOc2ccccc2F)cc1.Cl (stereo not shown) [Compound 22c]"
experimental_endpoint = "pKa"
data_value = 7.97

[[record]]
molecule = "CCCCOC(=O)Nc1ccc(C(=O)OCC(O)CNCCOc2ccc(OC)cc2)cc1.Cl (stereo not shown) [Compound 20d]"
experimental_endpoint = "pKa"
data_value = 8.18

[[record]]
molecule = "CCOC(=O)Nc1ccc(C(=O)OCC(O)CNCCOc2ccc(OC)cc2)cc1.Cl (stereo not shown) [Compound 20b]"
experimental_endpoint = "pKa"
data_value = 8.23

[[record]]
molecule = "COC(=O)Nc1ccc(C(=O)OCC(O)CNCCOc2ccccc2OC)cc1.Cl (stereo not shown) [Compound 19a]"
experimental_endpoint = "pKa"
data_value = 8.82


###

Reported Log k by item:
Experiment: Lipophilicity determination by HPLC (capacity factor k / log k)
Format: physicochemical
Measurement Setup: RP-HPLC, C18, MeOH 55%/H2O 45%
Experimental Endpoint: Log k

[[record]]
molecule = "CCCCOC(=O)Nc1ccc(C(=O)OCC(O)CNCCOc2c(OC)cccc2OC)cc1.Cl (centres unmarked) [Compound 21d]"
data_value = 0.4177

[[record]]
molecule = "CCCOC(=O)Nc1ccc(C(=O)OCC(O)CNCCOc2ccccc2F)cc1.Cl (centres unmarked) [Compound 22c]"
data_value = 0.4206

[[record]]
molecule = "CCCOC(=O)Nc1ccc(C(=O)OCC(O)CNCCOc2ccccc2OC)cc1.Cl (centres unmarked) [Compound 19c]"
data_value = 0.4089

[[record]]
molecule = "CCCOC(=O)Nc1ccc(C(=O)OCC(O)CNCCOc2ccc(F)cc2)cc1.Cl (centres unmarked) [Compound 23c]"
data_value = 0.4228

[[record]]
molecule = "CCOC(=O)Nc1ccc(C(=O)OCC(O)CNCCOc2ccccc2F)cc1.Cl (centres unmarked) [Compound 22b]"
data_value = 0.4011

[[record]]
molecule = "CCOC(=O)Nc1ccc(C(=O)OCC(O)CNCCOc2c(OC)cccc2OC)cc1.Cl (centres unmarked) [Compound 21b]"
data_value = 0.3956

[[record]]
molecule = "CCCOC(=O)Nc1ccc(C(=O)OCC(O)CNCCOc2ccc(OC)cc2)cc1.Cl (centres unmarked) [Compound 20c]"
data_value = 0.4108

[[record]]
molecule = "CCOC(=O)Nc1ccc(C(=O)OCC(O)CNCCOc2ccc(F)cc2)cc1.Cl (centres unmarked) [Compound 23b]"
data_value = 0.4032

